- ASSAYED TARGET: T1, zCON9_D
- T1 chain: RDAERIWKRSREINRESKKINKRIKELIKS
- EXPERIMENT SUMMARY: two-hybrid library CCmax;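 also: natural log of median RNA to DNA barcode read ratio; higher means stronger binding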
- EXPERIMENTAL SETUP: mean of both orientations
PROPERTY: interaction score

Guide cases for interaction score, answers given:
BINDER | MEAS VALUE
DKNAALKAEIAALEAENAALEAKIAALKG [4H3606-AA] | -1.76
DEIAALEAEIAALEAKNAALKAKNAALKG [P3-AA] | -2.08

Q: # input binder: DKIAALKAENAALEAKIAALKAENAALEG [P8-AA] ; wanted: its interaction score
Result: -1.98
